- System: K4 kissing-loop RNA reporter
- protocolSummary: apparent KD of K4 kissing-loop reporter; higher = weaker reporter binding
- assayContext: Eterna round: R107; input ligand: none
# apparent KD of K4 kissing-loop reporter values compiled below
readoutKind: apparent KD of K4 kissing-loop reporter

residues="UAUUUAAAUAAAAUAAAAUAAAUUGCUGAUACCAGAGCCAAUUGGCUCCCUUGGCAGCGGAUCGAGUGAUGUUCGUAAAAUUUAU [AK2 SS Theophylline A]" reportedmeasurement="0.0296 µM"
residues="ACGAAUCCAGCGGCCGCCACUAUUCGAUGAGUGAUGUUUAGGAGUAGAUCAUACCGCCGUGGUAAUAGGACCGGGCUCUUUGUAG [theeternabot_exclusion_KL_Trp_B_36]" reportedmeasurement="0.201 µM"
residues="UACACGACUCGUGUAAACCGAGGUAACAGGCAGGAUAUGUAACGGAACAGAAGGGCCAUGUAGCGUGUCCAGUGAUGUUGGAUGC [Betilare]" reportedmeasurement="0.186 µM"
residues="AGCUAGUGAAACUAGUUUAAACUAGGUGAAGGAGCGAUCGAAAGAUCAGGUAGGUCGCACCUAACUGAGUGAUGUUCAGGAAAUA [KL-SSArg-A4]" reportedmeasurement="0.0707 µM"
residues="GUCUGCGUCUCGGCCGCCACUCACUAGUGAUGUUAGUAAGGAGCGACUAGCGCAGUCCUGAAGAUGAGGACCGGGAGACGCAGGA [Exclusion Tryptophan B GF5]" reportedmeasurement="0.119 µM"
residues="UGUCAUUGGUCGGCCGCCACUUCGUAUGAAGUGAUGUUUUGUAGAUUGUGUUGAAAGGUAUGGUGAAGGACCGGGACCGAUGACU [FiskerMod 22 - Jieux - Same State - Tryptophan B]" reportedmeasurement="0.765 µM"

###

- System: K4 kissing-loop RNA reporter
- protocolSummary: apparent KD of K4 kissing-loop reporter; higher = weaker reporter binding
- assayContext: Eterna round: R107; input ligand: FMN 200 uM
Values of apparent KD of K4 kissing-loop reporter greater than or equal to 300 nM map to rule met; values below map to rule not met.

residues=GCCUGUGCGCGAAGGAGCGCCGUGACAGGUUACUGCCUUGGGCAGUGAUGUUGCUCAAUCUGGCAGGUAGGUCGCGUGCACAGGC cat="rule not met"
residues="CCAUCGCUAUUCGAUACCAGCUCCUUAGUGAUGUUAAGGUUUUACGCUCUGUAGGAGCGAAGCCCUUGGCAGCGAGUAGUGAUGG [#04 K4 Theophylline B Same State]" cat="rule met"
residues="UCCUGCAAUCGACCACGAAAGUGGAUGGAUACCAGAGUCGAAAGACUCCCUUGGCAGCCAGUGAUGUUGGAAGCAGGUAAAUAAA [#SwitchBubble 17 #K4Late]" cat="rule met"
residues="AAACAUCACUGGGAGUGAUGUUCUCAGUGACGAGGACCGGUACGGCCGCCACUCGCGAGAGAUAUAGAUGAGUAAUGACAUCAUU [Excl Tryptophan A V3]" cat="rule not met"
residues="UAAUGUGGCACAGGAUAUACUGAUUGGAGUGAUGUUCCAAACAUGGACGUGAGACUUUUACAAGAAGUAGAAGGGUGUUAGAUAU [Exclusion FMN B GF 20]" cat="rule not met"

###

- System: K4 kissing-loop RNA reporter;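 note: bound reporter read as fluorescence of individual clusters on recovered sequencing chips by microscopy, with normalized cluster intensities fitted with a binding model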
- protocolSummary: apparent KD of K4 kissing-loop reporter; higher = weaker reporter binding
- assayContext: Eterna round: R107; input ligand: none
Documented apparent KD of K4 kissing-loop reporter across a set of sequences
readoutKind: apparent KD of K4 kissing-loop reporter (nM)

residues="UGUCAUUGGUCUGAUACCAGUUGAUAAACUGGAGUGAUGUUCCAAGAACGAGAAACUCGCAACCCUUGGCAGCAGACCGAUGACU [TheoBS 17 #SwitchBubble 13 #StaticStem]" unitofmeasure=nM reportedmeasurement=170
residues="GUAUGUGGAAACACGUACUUAUAUCCUAAGCAGGAUAUGCGGAAACGCAGAAGGGCUACCAACGAGUUUACCCAGUGAUGUUGGG [Ex FMN A 14]" unitofmeasure=nM reportedmeasurement=320
residues="AGGUGCUACGGAAGGAGCGCACCAGUGAUGUUGGUGUGUGACCGUGACAUGGCAGUCAAGGUGCAGGUAGGUCGCCGUGGCCUUU [Geeseris]" unitofmeasure=nM reportedmeasurement=131
residues="GGAUCCACCAGUGAUGUUGGAGAAAACUUCAAGGAUAUGACGAAAGUCAGAAGGUGGUAGACUGGGCAAAGUCCGGUCGGAUCCA [FmnA10 U29+G66]" unitofmeasure=nM reportedmeasurement=296
residues="UUCCUAUUAUUAACACUAUAUACAACUGAAGGAGCGACAAUAAAGUCAGGUAGGUCGCAGAAUUAAUGAGUGAUGUUCAUUUUUA [JR_ExcArginiA_Sub013]" unitofmeasure=nM reportedmeasurement=96.6
residues=AAAUAGAUCAGUCACCCAGUGAUGUUGGAAGGAGCGUGCGAAAGCACAGGUAGGUCGCCGAAAUAAAAUUGGCUGAUCAAAAUAA unitofmeasure=nM reportedmeasurement=116
residues="AGUGAUGUAUGGCGGUGUGUCGCUUAAAAUCAGGAUAUAUAAACAAAUAGAAGGGAUGGCGGAGUGAUGUUCCGCCGGCCGCCAU [FMN A Exl V2]" unitofmeasure=nM reportedmeasurement=134
residues="CUGAGCCUGACGAAAGUCAGGCUCUGCGAGCGAGGACCGGUACGGCCGCCACUCGGUGCAGUGAUGUUGCAUGGCCGCAAGGCCG [#2 Exclusion - Tryptophan A Attempt #18 (HarryS)]" unitofmeasure=nM reportedmeasurement=207
residues="AUUCUGUUUUUGAUGUUUAUUGUAUAAUGGCAGGAUAUCGUAGAAGCGAGAAGGGCUUUUAUGCGUUAUGAGUGAUGUUUGUAGG [eyeefvmullin]" unitofmeasure=nM reportedmeasurement=284
residues="UUGGAGUGAUGUUCCAUAUCUUGAGCCGAAGGAGCGGCAUUAUUGCCAGGUAGGUCGCGGCAGAAGGUACCAGUGAUGUUGGAAA [Same State Arginine A GF 4]" unitofmeasure=nM reportedmeasurement=151
residues="AAGUGUGUGGCGGCCGCCACUAGAAUCCAGUGAUGUUGGAGUAAUCAAAUAAAUAAUAAUAAACAUAGGACCGGGCCAUAUAGAA [Same State - Tryptophan B (Freestyle 2)]" unitofmeasure=nM reportedmeasurement=147
residues="UAAUAAAUUCCAGCUAUAUCACUCUUCGAAGGAGCGGACGAAAGUCCAGGUAGGUCGCGAAGAGUGAUGUUCUUUGCGGCGCUGG [Omei KL Arginine A Exc A v5]" unitofmeasure=nM reportedmeasurement=75.4

###

- Test system: MS2 coat protein
- protocolSummary: apparent KD of MS2 coat protein; designed switch direction (-1 OFF switch, 1 ON switch): -1; higher = weaker reporter binding
- assayContext: input ligand: none
readoutKind: apparent KD of MS2 coat protein

residues="UUUAAACAUGAGGAUCACCCAUGUGAGGAUAUACGAAUGCAGACACACACGGAUGCAAGUAGAAGGCACAACGC [Design #11] (Eterna round: R97, puzzle: Exclusion 1)" target="MS2 coat protein" reportedmeasurement="25 nM"
residues="AAGAAACAUGAGGAUCACCCAUGUGAGGAUAUGAUAUGCUAAGCGUAAGCUUAGUAUAUCAGAAGGCACAAAGG [Salishxlusion 1 - Jieux - Exclusion 1] (Eterna round: R97, puzzle: Exclusion 1)" target="MS2 coat protein" reportedmeasurement="120 nM"
residues="UGGAUAACAGGAUAUACAUGAGGAUCACCCAUGUUUCCGGACGGAGACGAAUCCUAGAGUAGAAGGGUUAUCCC [Eternabot (Original) Solution 17] (Eterna round: R97, puzzle: Exclusion 3)" target="MS2 coat protein" reportedmeasurement="362 nM"
residues="CUUUUGUCAGGAUAUCGUGCAUACAACGAAAGUUCUAUGUGCGAGAAGGGACAUGAGGAUCACCCAUGUUACGG [Omei Ex4 A6] (Eterna round: R97, puzzle: Exclusion 4)" target="MS2 coat protein" reportedmeasurement="677 nM"
residues="GAGUGCUGAGGAUAUACAUGAGGAUCACCCAUGUGCUUCAGCUAGGAGACUAGCAUUCGUAGAAGGCAGUACUC [Mod of lroppy 22 - Jieux - Exclusion 3] (Eterna round: R97, puzzle: Exclusion 3)" target="MS2 coat protein" reportedmeasurement="14.7 nM"

###

- System: MS2 coat protein
- protocolSummary: apparent KD of MS2 coat protein; designed switch direction (-1 OFF switch, 1 ON switch): -1; higher = weaker reporter binding
- assayContext: Eterna round: R95; input ligand: microRNA oligo, concentration not stated
readoutKind: apparent KD of MS2 coat protein (nM)

residues="UCAUGUUUAGAGGAUAUGAUUACUUUGGAGUAAUCAGAAGGCUAGACAUGAGGAUCACCCAUGUCAUAACAUGA [Exclusion 6 - B - 15:c] (puzzle: Exclusion 6)" readoutkind="apparent KD of MS2 coat protein" reportedmeasurement=71.5
residues="AGAAGUAGUAUCCGAUCCUACAUGAGGAUCACCCAUGUAGCUAGACGUGCACGCGAUGCUCGUCAGACUACCAGAUG [salish99_TOv1_r3_030] (puzzle: Sensor v3, turn-off variant 1)" readoutkind="apparent KD of MS2 coat protein" reportedmeasurement=205
residues="AGUACUAACACGAAAGUGUUAGUACUAUAAGCUUGUGUUACAUGAGGAUCACCCAUGUCCUCAUAAGCUCGUCUUAU [JL-sv3-2.15 mat747 mod] (puzzle: Sensor v3, turn-off variant 2)" readoutkind="apparent KD of MS2 coat protein" reportedmeasurement=31.8
residues="AAGAAGCAAGGAUAUACAGAGGAGAGUAAAGCAAGAGGAGAACAUGAGGAUCACCCAUGUAGAAGGUGCAGAGA [JR_Exclu2_Sub018] (puzzle: Exclusion 2)" readoutkind="apparent KD of MS2 coat protein" reportedmeasurement=20.3
residues="AAGGAUAGAGGAUAUAUAUAGAUACAGAUUCAUGUAGAACUACAUGAGGAUCACCCAUGUAGAAGGCUAUCCUA [Fiskers Ex 2 - 10] (puzzle: Exclusion 2)" readoutkind="apparent KD of MS2 coat protein" reportedmeasurement=14.7

Data origin, for the record: the supplement of paper PMC9170038
